Recorded % degradation in 24 h when incubated with simulated intestinal fluid by entry
assay: Stability in simulated intestinal fluid; assay type: in vitro ADME; conditions: 2 μM, 37° C., pH 7.5, 24 h
Where a SMILES comes first, the peptide text is derived from it. [ ]: non-standard residue; d: D form. ξ: configuration not given here. ξαMeBip(2'-Et,4'-OMe) = CCc1cc(OC)ccc1-c1ccc(CC(C)(N)C(=O)O)cc1; ξBip(2'-Et-4'-OMe) = CCc1cc(OC)ccc1-c1ccc(CC(N)C(=O)O)cc1; ξαMePhe(2,6-F2) = CC(N)(Cc1c(F)cccc1F)C(=O)O; ξαMe(hhPhe) = CC(N)(CCCc1ccccc1)C(=O)O; ξαMePhe(2-F) = CC(N)(Cc1ccccc1F)C(=O)O; ξhhPhe = NC(CCCc1ccccc1)C(=O)O; ξαMeD = CC(N)(CC(=O)O)C(=O)O; ξαMeS = CC(N)(CO)C(=O)O; Aib = CC(C)(N)C(=O)O
I only need the number, in %, no unit after it.

CCc1cc(OC)ccc1-c1ccc(CC(C)(NC(=O)[C@H](CC(=O)O)NC(=O)C(C)(CO)NC(=O)[C@@H](NC(=O)C(C)(Cc2ccccc2F)NC(=O)[C@@H](NC(=O)CNC(=O)[C@H](CCC(=O)O)NC(=O)[C@H](C)NC(=O)[C@H](Cc2c[nH]cn2)NC(=O)[C@@H](N)C(C)C)[C@@H](C)O)[C@@H](C)O)C(=O)NC(C)(CCCc2ccccc2)C(N)=O)cc1 (some centres unmarked) [compound 170] (H-VHAEGT[ξαMePhe(2-F)]T[ξαMeS]D[ξαMeBip(2'-Et,4'-OMe)][ξαMe(hhPhe)]-NH2) :: 00
CCc1cc(OC)ccc1-c1ccc(CC(C)(NC(=O)[C@H](CC(=O)O)NC(=O)C(C)(CO)NC(=O)[C@@H](NC(=O)C(C)(Cc2ccccc2F)NC(=O)[C@@H](NC(=O)CNC(=O)[C@H](CCC(N)=O)NC(=O)[C@H](CO)NC(=O)[C@H](Cc2c[nH]cn2)NC(=O)[C@@H](N)C(C)C)[C@@H](C)O)[C@@H](C)O)C(=O)NC(C)(CCCc2ccccc2)C(N)=O)cc1 (some centres unmarked) [compound 165] (H-VHSQGT[ξαMePhe(2-F)]T[ξαMeS]D[ξαMeBip(2'-Et,4'-OMe)][ξαMe(hhPhe)]-NH2) :: 100
CCc1cc(OC)ccc1-c1ccc(CC(C)(NC(=O)[C@H](CC(=O)O)NC(=O)C(C)(CO)NC(=O)[C@@H](NC(=O)[C@H](Cc2ccccc2)NC(=O)[C@@H](NC(=O)CNC(=O)[C@H](CCC(=O)O)NC(=O)[C@H](C)NC(=O)[C@H](Cc2c[nH]cn2)NC(=O)[C@@H](N)C(C)C)[C@@H](C)O)[C@@H](C)O)C(=O)NC(CCCc2ccccc2)C(N)=O)cc1 (some centres unmarked) [compound 38] (H-VHAEGTFT[ξαMeS]D[ξαMeBip(2'-Et,4'-OMe)][ξhhPhe]-NH2) :: 00
CCc1cc(OC)ccc1-c1ccc(CC(C)(NC(=O)C(C)(CC(=O)O)NC(=O)[C@H](CO)NC(=O)[C@@H](NC(=O)C(C)(Cc2c(F)cccc2F)NC(=O)[C@@H](NC(=O)CNC(=O)[C@H](CCC(N)=O)NC(=O)C(C)(C)NC(=O)[C@H](Cc2c[nH]cn2)NC(=O)[C@@H](N)C(C)C)[C@@H](C)O)[C@@H](C)O)C(=O)NC(CCCc2ccccc2)C(N)=O)cc1 (some centres unmarked) [compound 75] (H-VH[Aib]QGT[ξαMePhe(2,6-F2)]TS[ξαMeD][ξαMeBip(2'-Et,4'-OMe)][ξhhPhe]-NH2) :: 46

Shifting focus to the molecule that follows.
Challenge: Which measured % degradation in 24 h when incubated with simulated intestinal fluid value corresponds to CCc1cc(OC)ccc1-c1ccc(CC(NC(=O)[C@H](CC(=O)O)NC(=O)[C@H](CO)NC(=O)[C@@H](NC(=O)[C@H](Cc2ccccc2)NC(=O)[C@@H](NC(=O)CNC(=O)[C@H](CCC(N)=O)NC(=O)[C@H](CO)NC(=O)[C@H](Cc2c[nH]cn2)NC(=O)[C@@H](N)C(C)C)[C@@H](C)O)[C@@H](C)O)C(=O)NC(C)(CCCc2ccccc2)C(N)=O)cc1 (some centres unmarked) [compound 81] (H-VHSQGTFTSD[ξBip(2'-Et-4'-OMe)][ξαMe(hhPhe)]-NH2) ?
Response given: 40
